B1: glmS ribozyme (parent)
chain: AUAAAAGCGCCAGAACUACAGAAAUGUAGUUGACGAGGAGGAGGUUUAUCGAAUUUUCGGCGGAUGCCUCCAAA

variants of: B1; test: kcat; higher = faster cleavage; RNA array; conditions: with glucosamine-6-phosphate
This sample holds only a part of the variants without activity.
METRIC: kcat (s⁻¹)
Answers are plain numbers, in s⁻¹.

// input: 6 variants below; output: kcat for each
1. AUAAAAGCGCCAGAACUACAGAAAUGUAGUUAACGAGGAGGAGCUUUAUCGAAUUUUCGGCGGAUGUCUCCAAA
2. AUAAAAGCGCUAGAACUACAGAAAUGUAGUUGACGAGGAGGAGGUUUAUCGAAUUUACGGCGGAUGCCUCCAAA
3. AUAAAAGCGCCAGGACUACAGAAAUGUAGUUGACGAGGAGGAGGUUUAUCGAAUUUUCGGCGGAUUCCUCCAAA
4. AUAAAAGCGCCCGAACUACAGAAAUGUAGUUGACGAGGAGGAGGUUUAUCGAAUUUUCGGCGGAUGCCUCCAAA
5. AUAAAAGCGCCUGAACUACAGAAAUGUAUUUGACGAGGAGGAGGUUUAUCGAAUUUUCUGCGGAUGCGUACAAA
6. AUAAAAGCGCCAGAACUACAGAAAUGUAGUUGACGAGGAGGAGGUUUAUCGAAUCUUCGGCGGAUGCCUACAAA

result:
1: 0.000144; 2: 1.44e-05; 3: 0.00542; 4: 0.042; 5: 3.34e-05; 6: 1.26e-05

Source of measurements: the supplement of paper PMC7125110
